Each entry below carries its recorded pIC50.
molecular target: CDK4-NanoLuc fusion with CCND1 in 293T or 293 cells (Homo sapiens, UniProt P11802); construct: host or cells: 293T (ATCC CRL-3216) or 293 (ATCC CRL-1573); assay: NanoBRET Target Engagement (TE) Intracellular Kinase Assay, CDK4/CCND1; assay type: cell-based; details: NanoBRET TE intracellular kinase assay, 2-hour incubation, read-out: NanoBRET-CDK4/D1 IC50
Sequence (P11802 whole entry, the tested form may be a part): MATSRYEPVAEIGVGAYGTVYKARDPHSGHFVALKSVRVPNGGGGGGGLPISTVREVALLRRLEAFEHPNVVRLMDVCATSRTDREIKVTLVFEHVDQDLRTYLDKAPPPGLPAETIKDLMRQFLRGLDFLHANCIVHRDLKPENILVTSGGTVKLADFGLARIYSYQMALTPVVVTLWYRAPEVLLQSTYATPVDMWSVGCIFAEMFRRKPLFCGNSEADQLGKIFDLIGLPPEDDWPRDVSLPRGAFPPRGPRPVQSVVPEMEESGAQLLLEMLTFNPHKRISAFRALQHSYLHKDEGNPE
Sequence (P24385 whole entry partner, the tested form may be a part): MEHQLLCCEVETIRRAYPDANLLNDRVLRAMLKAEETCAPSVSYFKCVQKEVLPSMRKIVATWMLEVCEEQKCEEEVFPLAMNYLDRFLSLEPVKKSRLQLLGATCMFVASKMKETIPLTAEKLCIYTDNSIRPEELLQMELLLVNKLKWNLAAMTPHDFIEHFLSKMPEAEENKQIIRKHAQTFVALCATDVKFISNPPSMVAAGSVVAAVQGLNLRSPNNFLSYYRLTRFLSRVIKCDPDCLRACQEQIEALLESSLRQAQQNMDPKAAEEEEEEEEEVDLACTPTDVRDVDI
Note: pIC50 values are expressed as the negative base-10 logarithm of concentration in M.

Some solved cases for reference:
{"compound": "COc1cc(O)c(C=O)c(OCC(=O)Nc2cc([C@H]3CC[C@@H](OC(=O)N[C@H]4C[C@@H](C)C4)C3)[nH]n2)c1", "systemName": "CDK4-NanoLuc fusion with CCND1 in 293T or 293 cells (Homo sapiens, UniProt P11802)", "pIC50": 5.41}
{"compound": "COc1cc(O)c(C=O)c(OCC(=O)Nc2cc([C@H]3CC[C@@H](OC(=O)NCCC(F)(F)F)C3)[nH]n2)c1", "systemName": "CDK4-NanoLuc fusion with CCND1 in 293T or 293 cells (Homo sapiens, UniProt P11802)", "pIC50": 5.07}

// query Value lookup for pIC50; key = COc1cc(O)c(C=O)c(OCC(=O)Nc2cc([C@H]3CC[C@@H](OC(=O)N4C5COCC4C5)C3)[nH]n2)c1
// result 5.84

// query Do the same for COc1cc(O)c(C=O)c(OCC(=O)Nc2cc([C@H]3CC[C@@H](OC(=O)N4C[C@H](F)C[C@@H]4C)C3)n[nH]2)c1 please
// result 5.81

// query Do the same for COc1cc(O)c(C=O)c(OCC(=O)Nc2cc([C@H]3CC[C@@H](OC(=O)N(O)C(C)C)C3)[nH]n2)c1 please
// result 5.27

// query Do the same for CC(C)NC(=O)O[C@@H]1CC[C@H](c2cc(NC(=O)Cc3ncc(-c4cccc(O)c4C=O)s3)n[nH]2)C1 please
// result 6.11

// query Do the same for COc1cc(O)c(C=O)c2c1CC(C(=O)Nc1cc([C@H]3C[C@@H](OC(=O)N(C)N(C)C)C3)n[nH]1)C2 (single isomer, unassigned) [Compound 271] please
// result 5.49

// query Do the same for COc1cc(O)c(C=O)c(OCC(=O)Nc2cc([C@H]3CC[C@@H](OC(=O)N4[C@@H](C)COC[C@@H]4C)C3)[nH]n2)c1 please
// result 5.97

###

target: CDK1-NanoLuc fusion with CCNB1 in 293T or 293 cells (Homo sapiens, UniProt P06493); construct: host or cells: 293T (ATCC CRL-3216) or 293 (ATCC CRL-1573); assay: NanoBRET Target Engagement (TE) Intracellular Kinase Assay, CDK1/CCNB1; format: cell-based; settings: NanoBRET TE intracellular kinase assay, 2-hour incubation, read-out: NanoBRET-CDK1/B1 IC50
Sequence (P06493 whole entry, the tested form may be a part): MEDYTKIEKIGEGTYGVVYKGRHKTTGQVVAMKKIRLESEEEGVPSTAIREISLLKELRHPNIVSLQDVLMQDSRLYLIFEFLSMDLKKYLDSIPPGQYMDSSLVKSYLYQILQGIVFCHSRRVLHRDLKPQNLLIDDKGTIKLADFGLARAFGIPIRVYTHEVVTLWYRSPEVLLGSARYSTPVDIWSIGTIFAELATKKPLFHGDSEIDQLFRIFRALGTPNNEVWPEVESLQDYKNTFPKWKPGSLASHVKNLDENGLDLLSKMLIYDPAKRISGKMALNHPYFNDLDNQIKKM
Sequence (P14635 whole entry partner, the tested form may be a part): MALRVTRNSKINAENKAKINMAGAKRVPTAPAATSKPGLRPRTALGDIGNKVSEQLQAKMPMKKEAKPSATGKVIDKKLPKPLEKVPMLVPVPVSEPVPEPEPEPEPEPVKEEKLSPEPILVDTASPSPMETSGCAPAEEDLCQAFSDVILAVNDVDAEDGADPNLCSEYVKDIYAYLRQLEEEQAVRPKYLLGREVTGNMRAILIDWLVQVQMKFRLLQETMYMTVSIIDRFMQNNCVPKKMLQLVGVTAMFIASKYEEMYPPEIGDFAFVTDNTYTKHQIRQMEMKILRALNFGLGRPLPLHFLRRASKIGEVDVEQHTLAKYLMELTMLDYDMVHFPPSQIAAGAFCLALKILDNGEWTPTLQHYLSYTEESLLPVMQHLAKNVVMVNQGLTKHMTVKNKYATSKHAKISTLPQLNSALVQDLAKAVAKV
Each entry below carries its recorded pIC50.
Note: pIC50 values are expressed as the negative base-10 logarithm of concentration in M.

{"compound": "COc1cc(O)c(C=O)c(OCC(=O)Nc2cc([C@H]3C[C@@H](OC(=O)NC(C)C)C3)[nH]n2)c1 [Compound 223]", "measuredProperty": "pIC50", "quantitativeResult": 7.88}
{"compound": "CC1(NC(=O)O[C@@H]2CC[C@H](c3cc(NC(=O)COc4cccc(O)c4C=O)n[nH]3)C2)CCC1 [Compound 83]", "measuredProperty": "pIC50", "quantitativeResult": 8.21}

// query Value lookup for pIC50; key = COc1cccc(-c2cc(C(=O)Nc3cc([C@H]4CC[C@@H](OC(=O)NC(C)C)C4)[nH]n3)n(C)n2)c1C=O [Compound 106]
// result 7.81
